Assay: Biodistribution studies of 11C tracers
Assay type: in vivo, Wistar rats
Settings: 2 min p.i.
Procedure: Biodistribution studies were carried out in healthy male Wistar rats (body weight 200-450 g) at 2 min, 30 min and 60 min post injection (p.i.) (n=3/time point). […] The radioactivity in blood, organs and other body parts was measured using an automated gamma counter. […] For calculation of total radioactivity in blood, blood mass was assumed to be 7% of the body mass.
property_label: % ID Lungs (% ID)
Value expressed in % ID; do not type the unit.

Quick one: % ID Lungs for [11CH3]Oc1c(F)ccc(F)c1C1CCN(c2ccn3c(CC4CC4)nnc3c2C(F)(F)F)CC1 [[^11C]B-3] ?
3.7

Data request, read-out % ID Lungs, for [11CH3]Oc1ccc(F)c(F)c1C1CCN(c2ccn3c(CC4CC4)nnc3c2Cl)CC1 [[^11C]B-10]
1.8

Can you look up the measured % ID Lungs of [11CH3]Oc1ccc(F)cc1C1CCN(c2ccn3c(CC4CC4)nnc3c2Cl)CC1 [[^11C]B-4] for me?
2.9

Entry [11CH3]Oc1cc(F)cc(F)c1C1CCN(c2ccn3c(CC4CC4)nnc3c2Cl)CC1 [[^11C]B-7] has what % ID Lungs?
1.8

GET /values?readout=% ID Lungs&item= [11CH3]Oc1c(F)ccc(F)c1C1CCN(c2ccn3c(CC4CC4)nnc3c2Cl)CC1 [[^11C]B-2]
1.5

Entry [11CH3]Oc1cccc(F)c1C1CCN(c2ccn3c(CC4CC4)nnc3c2Cl)CC1 [[^11C]B-6] has what % ID Lungs?
1.8

Data origin, for the record: patent US20130230459A1
